Data origin: ChEMBL document CHEMBL1128724

- Test system: L1210
- methodNotes: Growth inhibition of murine leukemia L1210 cells.
- Assay type: functional, cell-based
- assaySetup: Mus musculus
This listing pairs molecules with measured IC50.
Provide only the numeric value, understood in µM.

Nc1ncnc2c1ncn2C(F)C#CCO (configuration not stated) ... 89

Read the next record carefully.
-- ask Report IC50 for Cc1cn(C/C=C(/F)CO)c(=O)[nH]c1=O please.
-- reply 60

---

- Tested on: ATH-8 cell line
- methodNotes: Inhibitory activity against HIV-1 in ATH8 cells
- Assay type: functional, cell-based
- assaySetup: Homo sapiens
resultType: pIC50
API: returns pIC50 as number; meaning -log10 of concentration in mol/L.

-- ask Given the compound Nc1ncnc2c1ncn2C/C=C(/F)CO , what is its reported pIC50?
-- reply 4.00
